From: patent US8895544B2

# System: IFNγ production in human isolated PBMC
# measurement.description: hrIL2/haCD3 stimulated IFNγ production in human isolated PBMC
# Assay type: cell-based
# condition.info: IL-2/aCD3 stimulated IFNγ, 18 h
observable: IC50 (nM)
Dear colleague, please return just the value in nM, with no unit written.

Please state recorded IC50 (tested on IFNγ production in human isolated PBMC) of `CCc1cc(O)c(F)cc1-c1ccc2c(-c3nc4c([nH]3)CCN(C(=O)c3cnc(N5CCCCC5)cn3)C4)n[nH]c2c1`
70

###

Could you please report measured pIC50 for the items listed next?
# system: JAK1 enzyme (Homo sapiens (Human), UniProt P23458)
# Sequence (P23458 whole entry): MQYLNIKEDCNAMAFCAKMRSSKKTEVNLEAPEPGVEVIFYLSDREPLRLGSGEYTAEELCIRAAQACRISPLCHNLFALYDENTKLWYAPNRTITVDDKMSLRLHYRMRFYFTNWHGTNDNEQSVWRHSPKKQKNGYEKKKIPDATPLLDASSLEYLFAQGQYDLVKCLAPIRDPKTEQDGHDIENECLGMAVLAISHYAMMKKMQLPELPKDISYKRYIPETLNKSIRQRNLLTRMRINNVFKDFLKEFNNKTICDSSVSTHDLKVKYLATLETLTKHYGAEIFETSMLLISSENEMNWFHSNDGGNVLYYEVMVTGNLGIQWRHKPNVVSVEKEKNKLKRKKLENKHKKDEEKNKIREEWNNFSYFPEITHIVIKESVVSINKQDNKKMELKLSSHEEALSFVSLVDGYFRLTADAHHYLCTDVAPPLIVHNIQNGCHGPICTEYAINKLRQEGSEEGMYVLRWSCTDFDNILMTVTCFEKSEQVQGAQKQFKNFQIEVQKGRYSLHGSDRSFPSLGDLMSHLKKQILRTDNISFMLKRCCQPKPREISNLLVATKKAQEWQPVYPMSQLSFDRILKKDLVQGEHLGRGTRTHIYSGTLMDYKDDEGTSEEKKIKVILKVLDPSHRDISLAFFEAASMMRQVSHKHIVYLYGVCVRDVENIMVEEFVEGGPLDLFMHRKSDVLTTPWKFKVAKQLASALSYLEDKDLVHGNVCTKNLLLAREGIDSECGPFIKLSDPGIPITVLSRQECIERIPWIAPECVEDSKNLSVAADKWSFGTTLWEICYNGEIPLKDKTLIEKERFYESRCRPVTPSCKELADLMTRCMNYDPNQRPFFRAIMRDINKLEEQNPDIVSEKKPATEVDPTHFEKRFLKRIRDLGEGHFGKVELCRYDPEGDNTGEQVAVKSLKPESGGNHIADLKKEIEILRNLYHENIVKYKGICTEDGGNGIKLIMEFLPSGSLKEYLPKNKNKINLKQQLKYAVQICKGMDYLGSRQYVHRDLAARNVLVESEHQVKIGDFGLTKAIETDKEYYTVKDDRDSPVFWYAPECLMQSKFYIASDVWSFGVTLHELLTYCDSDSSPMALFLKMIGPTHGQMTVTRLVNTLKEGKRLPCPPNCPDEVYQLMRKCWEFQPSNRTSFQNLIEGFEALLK
# measurement.description: JAK1 isolated enzyme high ATP Caliper endpoint assay;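 also: enzyme at 10 nM preincubated with inhibitor 30 min, then kinase reaction 120 min at room temperature, peptide phosphorylation read by microfluidic mobility shift with fluorescence, inhibition relative to HPE and ZPE plate controls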
# condition.info: 2.5 mM ATP, read-out: JAK-1 IC50
Where a name gives a salt, the structure may show the parent alone.
Give only the number. pIC50 is defined as minus log10 of concentration in molar units.

Quick check: pIC50 of CCc1cc(O)c(F)cc1-c1ccc2c(-c3nc4c([nH]3)CCN(Cc3cccc(OC)c3)C4)n[nH]c2c1 [Example 22, formic acid salt] ?
8.52

Quick check: pIC50 of Oc1cc(CC(F)(F)F)c(-c2ccc3c(-c4nc5c([nH]4)CCN(Cc4ccccc4)C5)n[nH]c3c2)cc1F [Example 31] ?
7.18

Quick check: pIC50 of CCc1cc(O)c(F)cc1-c1ccc2c(-c3nc4c([nH]3)CCN(C(=O)c3cnc(Oc5ccccc5F)cn3)C4)n[nH]c2c1 [Example 13] ?
8.82

Quick check: pIC50 of CCc1cc(O)c(F)cc1-c1ccc2c(-c3nc4c([nH]3)CCN(C(=O)c3ccc(Cl)cn3)CC4)n[nH]c2c1 [Example 8] ?
8.54

Quick check: pIC50 of CCc1cc(O)c(F)cc1-c1ccc2c(-c3nc4c([nH]3)CCN(S(=O)(=O)c3ccc(N5CCOCC5)nc3)C4)n[nH]c2c1 [Example 6] ?
8.08

Quick check: pIC50 of CCc1cc(O)c(F)cc1-c1ccc2c(-c3nc4c([nH]3)CCN(S(=O)(=O)c3ccc(Oc5ccccc5)nc3)C4)n[nH]c2c1 [Example 7] ?
8.60

###

Could you please report measured pIC50 for the items listed next?
# system: JAK3 enzyme (Homo sapiens (Human), UniProt P52333)
# Sequence (P52333 whole entry): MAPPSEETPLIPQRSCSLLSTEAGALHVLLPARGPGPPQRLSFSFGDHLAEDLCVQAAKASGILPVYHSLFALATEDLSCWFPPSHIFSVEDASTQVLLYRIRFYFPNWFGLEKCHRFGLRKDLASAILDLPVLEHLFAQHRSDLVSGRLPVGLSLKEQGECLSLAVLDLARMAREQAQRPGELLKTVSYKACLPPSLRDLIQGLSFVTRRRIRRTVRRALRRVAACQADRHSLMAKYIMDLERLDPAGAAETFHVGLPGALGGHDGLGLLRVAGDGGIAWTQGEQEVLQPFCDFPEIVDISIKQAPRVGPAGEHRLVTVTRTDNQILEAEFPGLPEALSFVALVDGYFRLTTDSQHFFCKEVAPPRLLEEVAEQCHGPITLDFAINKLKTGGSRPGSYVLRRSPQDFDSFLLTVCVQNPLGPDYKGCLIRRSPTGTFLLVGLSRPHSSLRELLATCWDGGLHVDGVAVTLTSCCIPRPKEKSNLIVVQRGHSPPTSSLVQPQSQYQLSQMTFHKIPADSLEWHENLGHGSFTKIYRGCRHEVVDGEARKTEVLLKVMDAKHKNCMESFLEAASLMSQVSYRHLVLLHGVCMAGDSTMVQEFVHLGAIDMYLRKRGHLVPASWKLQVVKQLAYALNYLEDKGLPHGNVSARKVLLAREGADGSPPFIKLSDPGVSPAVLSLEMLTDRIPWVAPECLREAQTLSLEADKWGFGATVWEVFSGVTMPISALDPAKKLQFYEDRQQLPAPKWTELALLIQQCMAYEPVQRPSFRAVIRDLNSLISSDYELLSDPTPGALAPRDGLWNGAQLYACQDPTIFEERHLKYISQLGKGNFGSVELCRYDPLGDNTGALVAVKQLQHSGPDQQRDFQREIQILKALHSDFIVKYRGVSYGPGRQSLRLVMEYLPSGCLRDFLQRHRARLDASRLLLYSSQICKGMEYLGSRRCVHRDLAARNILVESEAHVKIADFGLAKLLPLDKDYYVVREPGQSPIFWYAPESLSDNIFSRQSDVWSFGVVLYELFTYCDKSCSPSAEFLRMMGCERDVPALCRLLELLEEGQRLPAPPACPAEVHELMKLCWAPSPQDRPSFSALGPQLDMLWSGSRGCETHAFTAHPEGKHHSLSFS
# measurement.description: JAK3 isolated enzyme high ATP Caliper endpoint assay
# condition.info: 400 μM ATP, read-out: JAK-3 IC50
Counter-ions that a name gives are not always drawn.
Give only the number. pIC50 is defined as minus log10 of concentration in molar units.

Please state recorded pIC50 (tested on JAK3 enzyme (Homo sapiens (Human), UniProt P52333)) of `CCc1cc(O)c(F)cc1-c1ccc2c(-c3nc4c([nH]3)CCN(Cc3ccc5cccnc5n3)C4)n[nH]c2c1`
7.96

Please state recorded pIC50 (tested on JAK3 enzyme (Homo sapiens (Human), UniProt P52333)) of `Oc1cc(CC(F)(F)F)c(-c2ccc3c(-c4nc5c([nH]4)CCN(Cc4ccccc4)C5)n[nH]c3c2)cc1F`
6.73

Please state recorded pIC50 (tested on JAK3 enzyme (Homo sapiens (Human), UniProt P52333)) of `CCc1cc(O)c(F)cc1-c1ccc2c(-c3nc4c([nH]3)CCN(C(=O)c3ccsn3)CC4)n[nH]c2c1`
9.00

Please state recorded pIC50 (tested on JAK3 enzyme (Homo sapiens (Human), UniProt P52333)) of `CCc1cc(O)c(F)cc1-c1ccc2c(-c3nc4c([nH]3)CCN(Cc3ccnc(C#N)c3)C4)n[nH]c2c1`
8.85

Please state recorded pIC50 (tested on JAK3 enzyme (Homo sapiens (Human), UniProt P52333)) of `CCc1cc(O)c(F)cc1-c1ccc2c(-c3nc4c([nH]3)CCN(S(=O)(=O)c3ccc(Oc5ccccc5)nc3)C4)n[nH]c2c1`
8.82

Please state recorded pIC50 (tested on JAK3 enzyme (Homo sapiens (Human), UniProt P52333)) of CCc1cc(O)c(F)cc1-c1ccc2c(-c3nc4c([nH]3)CCN(Cc3cccc(OC)c3)C4)n[nH]c2c1 [Example 22, formic acid salt]
8.59

Please state recorded pIC50 (tested on JAK3 enzyme (Homo sapiens (Human), UniProt P52333)) of `CCc1cc(O)c(F)cc1-c1ccc2c(-c3nc4c([nH]3)CCN(C(=O)c3ccsn3)C4)n[nH]c2c1`
9.30

Please state recorded pIC50 (tested on JAK3 enzyme (Homo sapiens (Human), UniProt P52333)) of `CCc1cc(O)c(F)cc1-c1ccc2c(-c3nc4c([nH]3)CCN(Cc3ccc(Oc5ccccc5)nc3)C4)n[nH]c2c1`
8.62

Please state recorded pIC50 (tested on JAK3 enzyme (Homo sapiens (Human), UniProt P52333)) of `CCc1cc(O)c(F)cc1-c1ccc2c(-c3nc4c([nH]3)CCN(Cc3ccc(O)cc3)C4)n[nH]c2c1`
8.66

Please state recorded pIC50 (tested on JAK3 enzyme (Homo sapiens (Human), UniProt P52333)) of `CCc1cc(O)c(F)cc1-c1ccc2c(-c3nc4c([nH]3)CCN(C(=O)c3cnc(N5CCCCC5)cn3)C4)n[nH]c2c1`
9.30

Please state recorded pIC50 (tested on JAK3 enzyme (Homo sapiens (Human), UniProt P52333)) of `CCc1cc(O)c(F)cc1-c1ccc2c(-c3nc4c([nH]3)CCN(C(=O)c3cc(C#N)ccn3)CC4)n[nH]c2c1`
8.72

Please state recorded pIC50 (tested on JAK3 enzyme (Homo sapiens (Human), UniProt P52333)) of `CCc1cc(O)c(F)cc1-c1ccc2c(-c3nc4c([nH]3)CCN(Cc3ccccc3)CC4)n[nH]c2c1`
8.85

Please state recorded pIC50 (tested on JAK3 enzyme (Homo sapiens (Human), UniProt P52333)) of `CCc1cc(O)c(F)cc1-c1ccc2c(-c3nc4c([nH]3)CCN(Cc3cccc(O)c3)C4)n[nH]c2c1`
8.25

Please state recorded pIC50 (tested on JAK3 enzyme (Homo sapiens (Human), UniProt P52333)) of `O=C(c1ccc(F)cc1)N1CCc2[nH]c(-c3n[nH]c4cc(-c5cc(F)c(O)cc5CC(F)(F)F)ccc34)nc2C1`
8.17

Please state recorded pIC50 (tested on JAK3 enzyme (Homo sapiens (Human), UniProt P52333)) of `CCc1cc(O)c(F)cc1-c1ccc2c(-c3nc4c([nH]3)CCN(C(=O)c3ccc(F)cc3)CC4)n[nH]c2c1`
8.89

Please state recorded pIC50 (tested on JAK3 enzyme (Homo sapiens (Human), UniProt P52333)) of `CCc1cc(O)c(F)cc1-c1ccc2c(-c3nc4c([nH]3)CCN(C(=O)c3ccc(C#N)nc3)C4)n[nH]c2c1`
8.72

Please state recorded pIC50 (tested on JAK3 enzyme (Homo sapiens (Human), UniProt P52333)) of `CCc1cc(O)c(F)cc1-c1ccc2c(-c3nc4c([nH]3)CCN(C(=O)c3cnc(Oc5ccccc5F)cn3)C4)n[nH]c2c1`
8.44

Please state recorded pIC50 (tested on JAK3 enzyme (Homo sapiens (Human), UniProt P52333)) of `CCc1cc(O)c(F)cc1-c1ccc2c(-c3nc4c([nH]3)CCN(C(=O)c3ccc(Cl)cn3)CC4)n[nH]c2c1`
8.85

Please state recorded pIC50 (tested on JAK3 enzyme (Homo sapiens (Human), UniProt P52333)) of `CCc1cc(O)c(F)cc1-c1ccc2c(-c3nc4c([nH]3)CCN(S(=O)(=O)c3ccc(N5CCOCC5)nc3)C4)n[nH]c2c1`
8.89

Please state recorded pIC50 (tested on JAK3 enzyme (Homo sapiens (Human), UniProt P52333)) of `O=C(c1cnc(N2CCCCC2)cn1)N1CCc2[nH]c(-c3n[nH]c4cc(-c5cc(F)c(O)cc5CC(F)(F)F)ccc34)nc2C1`
7.38

Please state recorded pIC50 (tested on JAK3 enzyme (Homo sapiens (Human), UniProt P52333)) of `CCc1cc(O)c(F)cc1-c1ccc2c(-c3nc4c([nH]3)CCN(S(=O)(=O)c3ccc(F)cc3)C4)n[nH]c2c1`
8.80

Please state recorded pIC50 (tested on JAK3 enzyme (Homo sapiens (Human), UniProt P52333)) of `CCc1cc(O)c(F)cc1-c1ccc2c(-c3nc4c([nH]3)CCN(Cc3cccnc3C#N)C4)n[nH]c2c1`
8.39

Please state recorded pIC50 (tested on JAK3 enzyme (Homo sapiens (Human), UniProt P52333)) of `CCc1cc(O)c(F)cc1-c1ccc2c(-c3nc4c([nH]3)CCN(C(=O)c3ccc(Cl)cn3)C4)n[nH]c2c1`
9.00

Please state recorded pIC50 (tested on JAK3 enzyme (Homo sapiens (Human), UniProt P52333)) of `CCc1cc(O)c(F)cc1-c1ccc2c(-c3nc4c([nH]3)CCN(Cc3cnc5ccccc5c3)C4)n[nH]c2c1`
8.92
